Tested on: RXRa DBDmut IVT, anti-RXR (DBD mutation: RXRa K156A/R161A, NR concentration 90 nM)
Experiment: PBM binding z-score (relative to random genomic background probes); higher = stronger binding; sequences stand for … in GC…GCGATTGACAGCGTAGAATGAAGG
// map PBM binding z-score to label using low bracket (below 0.4), middle bracket (0.4 to below 2), high bracket (2 or more)

Would you please look over these solved cases?
GCAGACAGGTGAAACGCAGGTAACTCACGGTGGC    low bracket
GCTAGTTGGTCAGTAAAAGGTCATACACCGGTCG    middle bracket
TATACAGGGTCAAGGGCCAGAGTACGAATGTCGA    high bracket
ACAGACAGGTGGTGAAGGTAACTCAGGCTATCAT    low bracket
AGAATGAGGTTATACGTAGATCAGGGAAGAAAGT    middle bracket
ACTATTAGTTGAGACGAGGGGAACCGATAGGTTG    middle bracket
CCTATTAGTTGACCATAAGGGTAACCGAAGCTCG    middle bracket
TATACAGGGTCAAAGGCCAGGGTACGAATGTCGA    high bracket

Q) Hi, small favor: classify CCAGACAGGTCAAAGGTAACTCAGTCTGGTACGC by its PBM binding z-score when you get a moment.
A) high bracket

Q) Follow-up entry: CCTAGTTGGTCAGGAGGTCGCACACCGGATATGA
A) low bracket

Q) Follow-up entry: GTACCAAGGTGAATAGGTAGTTGATGAGTAGGCG
A) low bracket

Q) Follow-up entry: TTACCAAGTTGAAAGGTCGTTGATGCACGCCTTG
A) middle bracket

Q) Follow-up entry: CCTGTTAGGTCAATGGTCAGCTAAAGCAGCTCGC
A) high bracket
